Target: T1, P3A-bN
T1 chain: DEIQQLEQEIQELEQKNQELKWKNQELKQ
Experiment: two-hybrid library CCNG1;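 note: natural log of median RNA to DNA barcode read ratio; higher means stronger binding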
Flag rule - interaction score less than -0.7 flags T; the remaining entries get F.

binder: DKNQQLKQKIQELKQKIQELKWENQELEQ [P12A-bN]
category: F

binder: DENQQLEQEIQELEQEIQELEWKNQELKQ [P11A-bN]
category: F

binder: DEIQQLEQENQELEQENQELEWEIQELEQ [P1A-bN]
category: T

binder: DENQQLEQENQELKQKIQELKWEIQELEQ [4H1257-bN]
category: T

binder: DKIQQLKQKNQELKQKNQELKWKIQELKQ [P2A-bN]
category: T

binder: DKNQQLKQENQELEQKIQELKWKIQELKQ [P10A-bN]
category: T

Each recorded value in this set is attributed to paper PMC10397247.
